# Experimental Context: human gut metagenome, 24 h, 2 µM; also: call rule not given here
Quantity: Bacterial Biotransformation

compound=COC(=O)[C@H]1[C@H]2C[C@@H]3c4[nH]c5cc(OC)ccc5c4CCN3C[C@H]2C[C@@H](OC(=O)c2cc(OC)c(OC)c(OC)c2)[C@@H]1OC quantity="Bacterial Biotransformation" value_reported="Compound NOT metabolized"
compound="Cc1ccc(S(=O)(=O)NC(=O)NN2CCCCCC2)cc1 [TOLAZAMIDE]" quantity="Bacterial Biotransformation" value_reported="Compound metabolized"
compound="CCCC1O[C@@H]2C[C@H]3[C@@H]4CCC5=CC(=O)C=C[C@]5(C)[C@H]4[C@@H](O)C[C@]3(C)[C@]2(C(=O)CO)O1 (stereo not given in full) [BUDESONIDE]" quantity="Bacterial Biotransformation" value_reported="Compound metabolized"
compound=CN1CCN(CC/C=C2/c3ccccc3Sc3ccc(S(=O)(=O)N(C)C)cc32)CC1 quantity="Bacterial Biotransformation" value_reported="Compound metabolized"
compound="O=P(O)(O)O.c1ccc(CN(CC2=NCCN2)c2ccccc2)cc1 [ANTAZOLINE PHOSPHATE]" quantity="Bacterial Biotransformation" value_reported="Compound NOT metabolized"

====

# Assay Explanation: The drug is tested on Z-013 corresponding to rabbit gut metagenome with ENA study accession number: PRJEB37062 and ENA sample accession number: ERS12561813 for biotransformation under anaerobic condition. The drug concentrations were measured over 9 timepoints collected between 0 and 24 hours of incubation by liquid-chromatography-coupled mass spectrometry (LC–MS)
# Experimental Context: 2 µM
Where a SMILES comes first, the peptide text is derived from it. [ ]: non-standard residue; d: D form. pGlu = O=C1CC[C@@H](C(=O)O)N1; Thz = O=C(O)[C@@H]1CSCN1
Quantity: Bacterial Biotransformation

compound="CCN(CC)C(C)CN1c2ccccc2Sc2ccccc21 (configuration not stated)" value_reported="Compound NOT metabolized"
compound="CC(C)(Oc1ccc(CCNC(=O)c2ccc(Cl)cc2)cc1)C(=O)O [BEZAFIBRATE]" value_reported="Compound metabolized"
compound="CC(CN1c2ccccc2Sc2ccccc21)N(C)C (configuration not stated)" value_reported="Compound NOT metabolized"
compound=Cc1ccc(-c2cc(C(F)(F)F)nn2-c2ccc(S(N)(=O)=O)cc2)cc1 value_reported="Compound NOT metabolized"
compound=COC1=CC(=O)C[C@@H](C)[C@]12Oc1c(Cl)c(OC)cc(OC)c1C2=O value_reported="Compound metabolized"
compound=OCCOCCN1CCN(C2=Nc3ccccc3Sc3ccccc32)CC1 value_reported="Compound NOT metabolized"
compound="CCCCCCOC(=O)/N=C(/N)c1ccc(NCc2nc3cc(C(=O)N(CCC(=O)OCC)c4ccccn4)ccc3n2C)cc1.CS(=O)(=O)O [DABIGATRAN ETEXILATE MESYLATE]" value_reported="Compound NOT metabolized"
compound="Cc1ccc(S(=O)(=O)NC(=O)NN2CC3CCCC3C2)cc1 (configuration not stated) [GLICLAZIDE]" value_reported="Compound NOT metabolized"
compound=CO[C@]12C[C@@H](COC(=O)c3cncc(Br)c3)CN(C)[C@@H]1Cc1cn(C)c3cccc2c13 value_reported="Compound metabolized"
compound="CN(C)CCc1c[nH]c2ccc(Cn3cncn3)cc12.O=C(O)c1ccccc1 [RIZATRIPTAN BENZOATE]" value_reported="Compound NOT metabolized"
compound=Fc1ccc([C@@H]2CCNC[C@H]2COc2ccc3c(c2)OCO3)cc1 value_reported="Compound NOT metabolized"
compound="CN(C)C(=O)C(CCN1CCC(O)(c2ccc(Cl)cc2)CC1)(c1ccccc1)c1ccccc1 [LOPERAMIDE]" value_reported="Compound metabolized"
compound=O=C1[C@H](CC[C@H](O)c2ccc(F)cc2)[C@@H](c2ccc(O)cc2)N1c1ccc(F)cc1 value_reported="Compound NOT metabolized"
compound="C[C@@H](CO)NC(=O)[C@@H]1C=C2c3cccc4[nH]cc(c34)C[C@H]2N(C)C1.O=C(O)/C=C\\C(=O)O [ERGONOVINE MALEATE]" value_reported="Compound NOT metabolized"
compound="O=C(O)COCCN1CCN(C(c2ccccc2)c2ccc(Cl)cc2)CC1 (configuration not stated)" value_reported="Compound NOT metabolized"
compound="C=CCc1ccccc1OCC(O)CNC(C)C (configuration not stated)" value_reported="Compound NOT metabolized"
compound="O=C1CC[C@@H](C(=O)N2CSC[C@H]2C(=O)O)N1 [PIDOTIMOD] ([pGlu]-[Thz]-OH)" value_reported="Compound NOT metabolized"

====

# Experimental Context: human gut metagenome, 24 h, 2 µM
Quantity: Bacterial Biotransformation

compound="CN1CCN(C2=Nc3cc(Cl)ccc3Nc3ccccc32)CC1 [CLOZAPINE]" quantity="Bacterial Biotransformation" value_reported="Compound metabolized"
compound="CC(C(=O)O)c1ccc2c(c1)Cc1cccnc1O2 (stereo not drawn) [PRANOPROFEN]" quantity="Bacterial Biotransformation" value_reported="Compound metabolized"
compound="O=C(CCCN1CCC(O)(c2ccc(Cl)cc2)CC1)c1ccc(F)cc1 [HALOPERIDOL]" quantity="Bacterial Biotransformation" value_reported="Compound NOT metabolized"
compound="CC(C)NCC(O)COc1ccc(CCOCC2CC2)cc1 (stereo not drawn) [BETAXOLOL]" quantity="Bacterial Biotransformation" value_reported="Compound metabolized"
compound="CN1CCC(=C2c3ccccc3CCc3cccnc32)CC1.O=C(O)/C=C\\C(=O)O.O=C(O)/C=C\\C(=O)O [AZATADINE MALEATE]" quantity="Bacterial Biotransformation" value_reported="Compound metabolized"
compound="COc1ccccc1OCC(O)CN1CCN(CC(=O)Nc2c(C)cccc2C)CC1 (stereo not drawn) [RANOLAZINE]" quantity="Bacterial Biotransformation" value_reported="Compound NOT metabolized"
compound="COC(=O)[C@H]1[C@H]2C[C@@H]3c4[nH]c5cc(OC)ccc5c4CCN3C[C@H]2C[C@@H](OC(=O)c2cc(OC)c(OC)c(OC)c2)[C@@H]1OC [RESERPINE]" quantity="Bacterial Biotransformation" value_reported="Compound metabolized"
compound="NC12CC3CC(CC(C3)C1)C2 [AMANTADINE]" quantity="Bacterial Biotransformation" value_reported="Compound NOT metabolized"
compound="CC(=O)CC(c1ccccc1)c1c(O)c2ccccc2oc1=O (stereo not drawn) [WARFARIN]" quantity="Bacterial Biotransformation" value_reported="Compound metabolized"
compound="Cc1ccc(S(=O)(=O)NC(=O)NN2CCCCCC2)cc1 [TOLAZAMIDE]" quantity="Bacterial Biotransformation" value_reported="Compound metabolized"
compound=CN1CCc2c(c3ccccc3n2Cc2ccccc2)C1.CN1CCc2c(c3ccccc3n2Cc2ccccc2)C1.O=S(=O)(O)c1cccc2c(S(=O)(=O)O)cccc12 quantity="Bacterial Biotransformation" value_reported="Compound NOT metabolized"
compound="CCCCc1nc(Cl)c(CO)n1Cc1ccc(-c2ccccc2-c2nn[nH]n2)cc1 [LOSARTAN]" quantity="Bacterial Biotransformation" value_reported="Compound metabolized"
compound="CCc1nc(N)nc(N)c1-c1ccc(Cl)cc1 [PYRIMETHAMINE]" quantity="Bacterial Biotransformation" value_reported="Compound metabolized"
compound="COC(=O)Nc1nc2ccc(C(=O)c3ccccc3)cc2[nH]1 [MEBENDAZOLE]" quantity="Bacterial Biotransformation" value_reported="Compound metabolized"
compound="CCOC(=O)[C@H](CCc1ccccc1)N[C@@H](C)C(=O)N1[C@H](C(=O)O)C[C@H]2CCCC[C@@H]21 [TRANDOLAPRIL]" quantity="Bacterial Biotransformation" value_reported="Compound metabolized"
compound="CN(C)C(=O)C(CCN1CCC(O)(c2ccc(Cl)cc2)CC1)(c1ccccc1)c1ccccc1 [LOPERAMIDE]" quantity="Bacterial Biotransformation" value_reported="Compound metabolized"
compound="CCC(COC(=O)c1cc(OC)c(OC)c(OC)c1)(c1ccccc1)N(C)C.O=C(O)/C=C\\C(=O)O (stereo not drawn)" quantity="Bacterial Biotransformation" value_reported="Compound NOT metabolized"
compound="CC(C)(C)NC[C@H](O)COc1ccccc1C1CCCC1.CC(C)(C)NC[C@H](O)COc1ccccc1C1CCCC1.O=S(=O)(O)O [PENBUTOLOL SULFATE]" quantity="Bacterial Biotransformation" value_reported="Compound metabolized"
compound="NC(CO)(CO)CO.O=C(c1ccccc1)c1ccc2n1CCC2C(=O)O (stereo not drawn) [KETOROLAC TROMETHAMINE]" quantity="Bacterial Biotransformation" value_reported="Compound metabolized"
compound="CC(C)(C#N)c1cc(Cn2cncn2)cc(C(C)(C)C#N)c1 [ANASTROZOLE]" quantity="Bacterial Biotransformation" value_reported="Compound metabolized"
compound="CC(C)(C(=O)O)c1ccc(C(O)CCCN2CCC(C(O)(c3ccccc3)c3ccccc3)CC2)cc1 (stereo not drawn) [FEXOFENADINE]" quantity="Bacterial Biotransformation" value_reported="Compound NOT metabolized"
compound="CC(C)c1c(C(=O)Nc2ccccc2)c(-c2ccccc2)c(-c2ccc(F)cc2)n1CC[C@@H](O)C[C@@H](O)CC(=O)O [ATORVASTATIN]" quantity="Bacterial Biotransformation" value_reported="Compound NOT metabolized"
compound="Cc1nc(-c2ccc(OCC(C)C)c(C#N)c2)sc1C(=O)O [FEBUXOSTAT]" quantity="Bacterial Biotransformation" value_reported="Compound metabolized"
compound="CCCC(=O)Nc1ccc(OCC(O)CNC(C)C)c(C(C)=O)c1 (stereo not drawn) [ACEBUTOLOL]" quantity="Bacterial Biotransformation" value_reported="Compound metabolized"
compound="OC(CCN1CCCCC1)(c1ccccc1)C1CCCCC1 (stereo not drawn) [TRIHEXYPHENIDYL]" quantity="Bacterial Biotransformation" value_reported="Compound NOT metabolized"
compound="CN/C(=N/CCSCc1nc[nH]c1C)NC#N [CIMETIDINE]" quantity="Bacterial Biotransformation" value_reported="Compound metabolized"
compound="O=c1n(CCCN2CCN(c3cccc(Cl)c3)CC2)nc2ccccn12 [TRAZODONE]" quantity="Bacterial Biotransformation" value_reported="Compound metabolized"
compound="O=P(O)(O)O.c1ccc(CN(CC2=NCCN2)c2ccccc2)cc1 [ANTAZOLINE PHOSPHATE]" quantity="Bacterial Biotransformation" value_reported="Compound metabolized"
